Source: patent US20250084155A1

In this section we review reported koff values for a set of binders.
target: T1, HSP70 (human HSP70; the antigen of the binning, humanization and variant binding assays) (human, UniProt P0DMV8 1-641, limits assumed); assay: BLI, antibody on sensor
T1 construct: also called hu HSP70
T1 sequence (P0DMV8 whole entry, change not shown): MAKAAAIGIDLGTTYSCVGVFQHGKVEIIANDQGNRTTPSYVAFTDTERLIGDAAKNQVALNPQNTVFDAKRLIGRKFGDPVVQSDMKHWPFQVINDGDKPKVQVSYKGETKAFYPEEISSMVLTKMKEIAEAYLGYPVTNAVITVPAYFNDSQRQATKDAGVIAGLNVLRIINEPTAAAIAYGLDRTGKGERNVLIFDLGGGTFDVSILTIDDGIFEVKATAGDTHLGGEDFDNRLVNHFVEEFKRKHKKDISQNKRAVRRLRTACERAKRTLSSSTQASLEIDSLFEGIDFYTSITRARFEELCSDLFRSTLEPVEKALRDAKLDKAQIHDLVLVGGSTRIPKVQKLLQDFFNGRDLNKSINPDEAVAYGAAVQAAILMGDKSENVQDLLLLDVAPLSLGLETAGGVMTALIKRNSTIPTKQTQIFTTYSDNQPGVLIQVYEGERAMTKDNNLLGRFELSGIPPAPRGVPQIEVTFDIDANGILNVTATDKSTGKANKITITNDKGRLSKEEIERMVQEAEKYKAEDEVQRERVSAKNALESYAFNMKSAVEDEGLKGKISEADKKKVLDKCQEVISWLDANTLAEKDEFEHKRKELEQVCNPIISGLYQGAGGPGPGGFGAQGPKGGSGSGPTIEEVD

- binder: "h77A-25 (antibody, V domains shown) VH: QIQLVQSGPEVKKPGESVKVSCKASGYTFTNYGMNWVRQAPGKGLEWMGWINTYTGEPTYADDFKGRVTITRDTSASTAYMELSSLRSEDTAVYFCARYDHAMDYWGQGTSVTVSS VL: DIVMTQSPDSLAVSLGERATINCKSSQSLLNSGTRKNYLAWYQQKPGQSPKLLIYWTSTRESGVPDRFSGSGSGTDFTLTISSLQAEDVAVYYCKQSYTLYTFGGGTKLEIK"
  koff [s⁻¹]: 0.000503
- binder: "h77A-10 (antibody, V domains shown) VH: QIQLVQSGAEVKKPGSSVKVSCKASGYTFTNYGMNWVRQAPGQGLEWMGWINTYTGEPTYADDFKGRFTFTADESTSTAYMELSSLRSEDTAVYFCARYDHAMDYWGQGTLVTVSS VL: DIVMTQSPDSLAVSLGERATINCKSSQSLLNSGTRKNYLAWYQQKPGQSPKLLIYWTSTRESGVPDRFSGSGSGTDFTLTISSLQAEDVAVYYCKQSYTLYTFGGGTKLEIK"
  koff [s⁻¹]: 0.000409
